SYSTEM_UNDER_TEST: BRM (Homo sapiens, UniProt P51531)
Construct: made in house; host or cells: High Five insect cells
Sequence (P51531 whole entry): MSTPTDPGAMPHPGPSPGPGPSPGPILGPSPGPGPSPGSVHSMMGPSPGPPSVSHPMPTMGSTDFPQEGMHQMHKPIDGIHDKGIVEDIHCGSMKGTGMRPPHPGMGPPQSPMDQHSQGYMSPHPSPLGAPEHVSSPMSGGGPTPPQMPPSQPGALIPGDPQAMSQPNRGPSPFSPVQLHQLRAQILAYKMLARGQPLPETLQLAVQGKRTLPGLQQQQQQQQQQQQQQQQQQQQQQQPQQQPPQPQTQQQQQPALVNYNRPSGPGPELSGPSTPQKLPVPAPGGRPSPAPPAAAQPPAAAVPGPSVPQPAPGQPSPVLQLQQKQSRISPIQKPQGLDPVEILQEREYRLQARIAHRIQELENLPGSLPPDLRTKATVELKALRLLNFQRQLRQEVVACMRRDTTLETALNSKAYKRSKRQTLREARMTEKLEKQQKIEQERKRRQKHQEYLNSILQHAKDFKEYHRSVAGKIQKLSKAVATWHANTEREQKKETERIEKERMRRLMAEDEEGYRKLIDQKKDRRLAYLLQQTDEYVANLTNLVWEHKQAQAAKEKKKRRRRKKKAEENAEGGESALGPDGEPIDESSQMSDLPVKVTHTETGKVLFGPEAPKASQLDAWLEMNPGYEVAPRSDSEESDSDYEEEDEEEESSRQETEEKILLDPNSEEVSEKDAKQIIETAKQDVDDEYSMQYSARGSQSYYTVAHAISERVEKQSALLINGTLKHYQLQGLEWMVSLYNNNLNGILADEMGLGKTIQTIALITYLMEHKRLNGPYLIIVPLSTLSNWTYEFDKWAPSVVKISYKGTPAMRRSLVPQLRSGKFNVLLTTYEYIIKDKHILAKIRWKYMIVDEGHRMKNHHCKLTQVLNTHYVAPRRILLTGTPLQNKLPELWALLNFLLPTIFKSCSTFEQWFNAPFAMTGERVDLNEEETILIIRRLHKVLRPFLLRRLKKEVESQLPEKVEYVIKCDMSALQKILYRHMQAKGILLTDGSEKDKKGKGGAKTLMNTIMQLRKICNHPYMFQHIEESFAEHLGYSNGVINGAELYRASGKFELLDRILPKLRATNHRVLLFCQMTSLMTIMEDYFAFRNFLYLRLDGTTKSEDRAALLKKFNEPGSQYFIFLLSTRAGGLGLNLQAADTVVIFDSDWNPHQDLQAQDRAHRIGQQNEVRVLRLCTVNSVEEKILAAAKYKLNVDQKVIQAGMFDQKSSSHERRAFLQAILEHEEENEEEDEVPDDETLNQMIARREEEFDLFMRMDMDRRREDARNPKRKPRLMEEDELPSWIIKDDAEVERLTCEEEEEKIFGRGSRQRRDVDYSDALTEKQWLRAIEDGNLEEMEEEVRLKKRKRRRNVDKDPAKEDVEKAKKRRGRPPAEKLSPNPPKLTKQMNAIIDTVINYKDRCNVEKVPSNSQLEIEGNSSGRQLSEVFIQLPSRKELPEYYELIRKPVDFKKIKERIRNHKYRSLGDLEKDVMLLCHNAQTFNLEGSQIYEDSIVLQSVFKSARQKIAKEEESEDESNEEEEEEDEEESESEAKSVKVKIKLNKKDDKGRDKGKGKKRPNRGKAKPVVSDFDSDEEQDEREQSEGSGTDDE
MEASUREMENT_PROTOCOL: ATPase catalytic activity assay (ADP-Glo), BRM
Format: biochemical
TEST_SETTINGS: ATPase assay, selectivity BRG1/BRM, Table 10
ENDPOINT_LABEL: Ratio (BRG1 IC50 (μM) divided by BRM IC50 (μM))

O=C(NCc1cc2nc(N3CCOc4ccc([C@H]5C[C@H]5F)nc43)ccc2cn1)c1cc(F)c2c(c1)S(=O)(=O)[C@@H](F)COC2
21.33

P: O=C(NCc1cc2nc(N3CCOc4cc(C5CC5)cnc43)ccc2cn1)c1cc(Cl)c2c(c1)S(=O)(=O)[C@@H](F)CCO2
Q: C[C@@H]1CCN1c1cnc2c(c1)OCCN2c1ccc2cnc(CNC(=O)c3cc(C(F)F)c4c(c3)S(=O)(=O)[C@@H](F)COC4)cc2n1
Task item: Lab note: check whether P or Q has the lower measured Ratio (BRG1 IC50 (μM) divided by BRM IC50 (μM)). Answer format: the label of the selected item.
Reply: Q
(Q: 12.83, P: 21.18)

###

SYSTEM_UNDER_TEST: BRM (Homo sapiens, UniProt P51531)
Construct: made in house; host or cells: High Five insect cells
MEASUREMENT_PROTOCOL: ATPase catalytic activity assay (ADP-Glo), BRM
Format: biochemical
TEST_SETTINGS: ATPase assay, selectivity BRG1/BRM, Table 10
ENDPOINT_LABEL: Ratio (BRG1 IC50 (μM) divided by BRM IC50 (μM))

Recorded results for 10 compounds are shown here.
O=C(NCc1cc2nc(-c3cccc(C4CC4)n3)ccc2cn1)c1cc(F)c2c(c1)S(=O)(=O)[C@@H](F)COC2 [Compound 114]
29.13
COc1nc([C@H](C)F)ccc1-c1ccc2cnc(CNC(=O)c3cc(Cl)c4c(c3)S(=O)(=O)[C@@H](F)CCO4)cc2n1 [Compound 308]
28.69
O=C(NCc1cc2nc(N3CCOc4cc(N5CC(F)C5)cnc43)ccc2cn1)c1cc(F)c2c(c1)S(=O)(=O)[C@@H](F)COC2 [Compound 30]
19.40
O=C(NCc1cc2nc(N3CCOc4ccc(N5CC[C@@H](F)C5)nc43)ccc2cn1)c1cc(F)c2c(c1)S(=O)(=O)[C@@H](F)CCO2 [Compound 86]
17.70
O=C(NCc1cc(C#Cc2cccc(OC(F)F)n2)ccn1)c1cc(F)c2c(c1)S(=O)(=O)[C@@H](F)COC2 [Compound 184]
23.91
C[C@@H]1CN(c2cccc(-c3ccc4cnc(CNC(=O)c5ccc6c(c5)S(=O)(=O)[C@@H](F)CCO6)cc4n3)n2)C[C@H](C)O1 [Compound 22]
9.93
CCOc1ccnc2c1OCCN2c1ccc2cnc(CNC(=O)c3cc(Cl)c4c(c3)S(=O)(=O)[C@@H](F)COC4)cc2n1 [Compound 27]
11.52
O=C(NCc1cc2cc(-c3cccc(OC(F)F)n3)ccc2cn1)c1cc(Cl)c2c(c1)S(=O)(=O)[C@@H](F)COC2 [Compound 235]
23.91
O=C(NCc1cc2nc(N3CCOc4cc(C5(C(F)F)CC5)cnc43)ccc2cn1)c1cc(F)c2c(c1)S(=O)(=O)[C@@H](F)COC2 [Compound 25]
21.51
O=C(NCc1cc2nc(N3CCCc4sc(C(F)F)nc43)ccc2cn1)c1cc(F)c2c(c1)S(=O)(=O)[C@@H](F)CCO2 [Compound 217]
9.68

I: CO[C@@H]1C[C@H]1N(C)c1cccc(-c2ccc3cnc(CNC(=O)c4cc(F)c5c(c4)S(=O)(=O)[C@@H](F)COC5)cc3n2)n1 [Compound 215]
II: COc1nc([C@H](C)F)ccc1-c1ccc2cnc(CNC(=O)c3cc(F)c4c(c3)S(=O)(=O)[C@@H](F)CCO4)cc2n1 [Compound 173]
III: O=C(NCc1cc2nc(-c3ccc(OC(F)F)c(C4CC4)n3)ccc2cn1)c1cc(F)c2c(c1)S(=O)(=O)[C@@H](F)COC2 [Compound 85]
Task item: Rank the 3 compounds: largest Ratio (BRG1 IC50 (μM) divided by BRM IC50 (μM)) first, smallest last. Respond with an ordered listing of the labels, as requested.
Reply: II, III, I
